System: MDA-MB-231 cells
measurement_notes: MTT cell viability assay, MDA-MB-231
Assay type: cell-based
measurement_conditions: Homo sapiens; MDA-MB-231, MTT, 72 h; read-out: Cytotoxicity IC50
Readings of IC50 for the listed molecules
experimental_endpoint: IC50 (µM)

>>> df
                           smiles_structure  uom  reading
0  Cc1cccc(C(=O)Nc2cc(Cc3n[nH]c(=O)c4ccccc34)cc(-c3c(C)noc3C)c2)c1   µM     8.23
1  Cc1ccccc1C(=O)Nc1cc(Cc2n[nH]c(=O)c3ccccc23)cc(-c2c(C)noc2C)c1   µM     8.83
2  CC(=O)Nc1ccc(CNc2cc(Cc3n[nH]c(=O)c4ccccc34)cc(-c3c(C)noc3C)c2)cc1   µM     8.77
